target: UniProt O42275; experiment: Inhibition of electrical eel AChE using acetylthiocholine chloride as substrate incubated for 5 mins by DTNB reagent based Ellman's method
Sequence (O42275 whole entry): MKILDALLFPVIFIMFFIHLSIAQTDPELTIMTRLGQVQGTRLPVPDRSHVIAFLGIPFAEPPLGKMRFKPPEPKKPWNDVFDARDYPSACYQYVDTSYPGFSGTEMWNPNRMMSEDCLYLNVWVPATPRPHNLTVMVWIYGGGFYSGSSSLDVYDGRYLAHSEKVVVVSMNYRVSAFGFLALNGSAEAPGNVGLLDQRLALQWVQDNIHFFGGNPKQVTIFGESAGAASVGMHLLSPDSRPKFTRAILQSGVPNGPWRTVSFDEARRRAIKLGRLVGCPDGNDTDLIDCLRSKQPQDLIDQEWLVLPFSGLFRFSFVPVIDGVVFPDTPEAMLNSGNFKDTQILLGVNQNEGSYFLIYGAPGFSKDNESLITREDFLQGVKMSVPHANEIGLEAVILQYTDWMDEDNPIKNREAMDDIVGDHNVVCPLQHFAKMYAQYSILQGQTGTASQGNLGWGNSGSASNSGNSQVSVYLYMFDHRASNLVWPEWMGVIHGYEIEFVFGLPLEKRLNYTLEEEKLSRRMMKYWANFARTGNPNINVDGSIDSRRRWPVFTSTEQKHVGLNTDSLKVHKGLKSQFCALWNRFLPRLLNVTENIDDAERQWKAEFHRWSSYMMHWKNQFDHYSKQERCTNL
QUANTITY MEASURED: IC50

[
  {
    "STRUCTURE": "COc1cc2c3c(c1O)-c1c(cccc1OC)C[C@@H]3[N+](C)(C)CC2",
    "EXPERIMENTAL RESULT": "Not Active"
  },
  {
    "STRUCTURE": "COc1cc(C[C@H]2c3cc(O)c(OC)cc3CC[N+]2(C)C)ccc1O",
    "EXPERIMENTAL RESULT": "Not Active"
  },
  {
    "STRUCTURE": "O=[N+]([O-])CCc1ccc(O[C@@H]2O[C@H](CO[C@@H]3OC[C@@H](O)[C@H](O)[C@H]3O)[C@@H](O)[C@H](O)[C@H]2O)cc1",
    "EXPERIMENTAL RESULT": "Not Active"
  },
  {
    "STRUCTURE": "COC1=C[C@]23CCN(C)[C@H](Cc4ccc(OC)c(O)c42)C3=CC1=O",
    "EXPERIMENTAL RESULT": "Not Active"
  },
  {
    "STRUCTURE": "COc1cc2c(cc1O)[C@H](Cc1ccc(OC)c(OC)c1)[N+](C)(C)CC2",
    "EXPERIMENTAL RESULT": "Not Active"
  }
]
